Data provenance is ChEMBL document CHEMBL1269006.

# test-protocol: Displacement of [3H](S)-warfarin from methacrylic acid-ethylene dimethacrylate copolymer

| compound | EC50 (µM) |
| --- | --- |
| CC(=O)CC(c1ccc(Cl)cc1)c1c(O)c2ccccc2oc1=O (stereo not drawn) | 165 |
| O=c1ccc2ccccc2o1 | 1290 |
| CC(=O)CC(c1ccccc1)c1c(O)c2ccccc2oc1=O (stereo not drawn) | 89.6 |
